- Test system: SK-N-SH human neuroblastoma cells
- ASSAY_TEXT: Serum Deprivation/JC-1 Mitochondrial Membrane Potential (MMP) Assay
- Format: cell-based
- CONDITION_DETAILS: Homo sapiens, SK-N-SH; percent maximal JC-1 ratio normalized to peak value for 10 μM dimebolin; read-out: JC-1 max %
RECORDED_ENDPOINT: Emax (%)
Please state the figure in %; there is no need to write the unit.

-- ask Write down Emax measured for item Cc1ccc(/C=C/c2cccc3c4c([nH]c23)CN2CCC4CC2)cn1 [Example 32]
-- reply 199

-- ask Write down Emax measured for item Cc1ccc(CCc2cccc3c4c([nH]c23)CN2CCC4CC2)cn1 [Example 33]
-- reply 197

###

- Test system: SK-N-SH human neuroblastoma cells
- ASSAY_TEXT: Serum Deprivation/JC-1 Mitochondrial Membrane Potential (MMP) Assay
- Type: cell-based
- CONDITION_DETAILS: Homo sapiens, SK-N-SH; percent maximal JC-1 ratio normalized to peak value for 10 μM dimebolin; read-out: JC-1 max %
RECORDED_ENDPOINT: Emax (%)
Please state the figure in %; there is no need to write the unit.

Recorded results for 5 molecules are shown here.
[
  {
    "MOLECULE": "c1cncc(-c2cccc3c4c([nH]c23)C2CCN(CC2)C4)c1",
    "Emax (%)": 113
  },
  {
    "MOLECULE": "c1cc(-c2cncnc2)c2[nH]c3c(c2c1)CN1CCC3CC1",
    "Emax (%)": 76
  },
  {
    "MOLECULE": "Cc1ccc(CCc2cccc3c4c([nH]c23)C2CCN(CC2)C4)cn1",
    "Emax (%)": 170
  },
  {
    "MOLECULE": "C(#Cc1cccc2c3c([nH]c12)C1CCN(CC1)C3)c1ccncc1",
    "Emax (%)": 104
  },
  {
    "MOLECULE": "Fc1cccc(/C=C/c2cccc3c4c([nH]c23)C2CCN(CC2)C4)c1",
    "Emax (%)": 44
  }
]

-- ask Write down Emax measured for item Cc1ccc(/C=C/c2cccc3c4c([nH]c23)C2CCCN(C4)C2)cn1 (stereo not drawn)
-- reply 213

-- ask Write down Emax measured for item `C(#Cc1cccc2c3c([nH]c12)C1CCN(CC1)C3)c1cccnc1`
-- reply 142

-- ask Write down Emax measured for item `C(=C\c1cccc2c3c([nH]c12)C1CCN(CC1)C3)/CCCc1ccccc1`
-- reply 58

-- ask Write down Emax measured for item C(=C\c1cccc2c3c([nH]c12)C1CCN(CC1)C3)/c1cncnc1 (single isomer, unassigned)
-- reply 54

###

- Tested on: SK-N-SH human neuroblastoma cells
- ASSAY_TEXT: Serum Deprivation/JC-1 Mitochondrial Membrane Potential (MMP) Assay
- Type: cell-based
- CONDITION_DETAILS: serum deprivation ~18 hours; JC-1 ratio normalized to peak value for 10 μM dimebolin
- Protocol: Tissue Culture: SK-N-SH human neuroblastoma cells obtained from American Type Culture Collection (Rockville, Md.) were maintained in the log phase of growth in Minimal Essential Media (MEM), 10% heat inactivated fetal calf serum and 100 units/mL antibiotic-antimycotic (AA). Cells were cultured and maintained in a humidified incubator at 37° C. under 5% CO2 and 95% air. Cells were trypsinized (0.25%) and subcultured every 3 days and used from 15-18 passages. […]
RECORDED_ENDPOINT: pEC50
Recall that pEC50 is obtained by taking minus log10 of the concentration measured in molar.

-- ask Write down pEC50 measured for item Cc1ccc(/C=C/c2cccc3c2NC2C4CCN(CC4)CC32)cn1 (centres unmarked) [Example 36]
-- reply 5.16
